# reported % inhibition Apol 40'; entries follow
target: P. falciparum apicoplast DNA polymerase (Pf-apPOL) (Plasmodium falciparum, UniProt Q8ILY1); test: Fluorescence-based high-throughput DNA polymerase assay (molecular beacon), primary screen and dose-response; type: biochemical; conditions: DRC-2; 40'; concentration 5;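 note: compound concentration given in µM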
Sequence (Q8ILY1 entry or part of it): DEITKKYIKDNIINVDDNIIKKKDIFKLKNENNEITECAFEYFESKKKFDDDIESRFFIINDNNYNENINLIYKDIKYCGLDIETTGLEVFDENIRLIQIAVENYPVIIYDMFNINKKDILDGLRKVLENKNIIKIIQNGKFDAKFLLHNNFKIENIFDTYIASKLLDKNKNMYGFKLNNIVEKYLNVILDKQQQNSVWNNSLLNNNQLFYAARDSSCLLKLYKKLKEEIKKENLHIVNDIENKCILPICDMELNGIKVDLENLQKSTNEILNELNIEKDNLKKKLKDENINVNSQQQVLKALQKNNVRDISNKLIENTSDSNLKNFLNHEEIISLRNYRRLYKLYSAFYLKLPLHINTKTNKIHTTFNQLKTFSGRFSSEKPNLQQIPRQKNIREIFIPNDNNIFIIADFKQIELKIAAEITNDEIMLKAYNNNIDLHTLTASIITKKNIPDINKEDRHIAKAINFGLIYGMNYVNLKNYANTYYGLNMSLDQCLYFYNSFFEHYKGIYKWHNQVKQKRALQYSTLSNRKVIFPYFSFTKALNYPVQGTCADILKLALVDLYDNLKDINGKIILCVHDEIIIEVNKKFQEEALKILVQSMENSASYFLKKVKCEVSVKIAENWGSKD
Give the value, in units of %, as a plain number.

Below: 3 compounds and their reported % inhibition Apol 40'.
Cc1ccc(C)n1-c1ccc(C(=O)NNC(=O)c2ccc3nccnc3c2)cc1 [Molecule 53]    2
COC(=O)c1sc(-c2ccc(C(C)(C)C)cc2)cc1NC(=O)CCC(=O)O [Molecule 87]    9
O=C(O)CCS(=O)(=O)c1ccc(-c2ccc(S(=O)(=O)CCC(=O)O)cc2)cc1 [Molecule 32]    15

# context switch: different compound, same % inhibition Apol 40'
// % inhibition Apol 40' value for Cc1cc(C)c2c(O)nc(SCC(=O)c3ccc(O)c(O)c3)nc2n1 [Molecule 88] : 45
